Test system: HL-60(TB) leukemia
experimental_protocol: NCI tumour cell line growth inhibition, 48 h
property_name: TGI (µM)
Give just the numeric value; µM need not be written.

# example entries with known answers
> print(dat)
                            molecule.smiles  numeric.value
1         Clc1cccc(N=C/C=C/Nc2cccc(Cl)c2)c1           39.9
2  C=C1C(=O)O[C@H]2[C@H]1CC/C(COC(=O)C(=O)c1cn(C)c3ccc(OC)cc13)=C\CC[C@@]1(C)O[C@@H]21           8.89

Inquiry: Fill blank: measured TGI of the compound COc1ccc(/C=C/C(C(=O)O)C(=O)O)cc1 is ____.
Reply text: 74.7

----------
Tested on: OVCAR-3 ovarian
experimental_protocol: NCI tumour cell line growth inhibition, 48 h
TGI values for the compounds below.

Below, each entry is followed by its recorded TGI result.
compound	property_name	result
Clc1ccc(-c2nn3c(C45CC6CC(CC(C6)C4)C5)nnc3s2)cc1	TGI	> 100 µM
CC(C)C(/C=C/c1ccccc1)=N\NC(=S)NN	TGI	> 88.8 µM
C#CC#CC#CC#CC#CC#CC#CC#CCC1OC[C@H](COC(=O)O[C@@H](C(=O)O[C@H]2C[C@@]3(O)[C@@H](OC(=O)c4ccccc4)[C@@H]4[C@]5(OC(C)=O)CO[C@@H]5C[C@H](O)[C@@]4(C)C(=O)[C@H](OC(C)=O)C(=C2C)C3(C)C)[C@@H](NC(=O)c2ccccc2)c2ccccc2)O1 (some centres undefined)	TGI	> 33.3 µM

Turning now to a further compound:
Inquiry: Find the recorded TGI belonging to c1ccc2nn(C3CCCCO3)nc2c1 (centres undefined) and report it.
Reply text: > 100 µM

----------
Test system: SK-MEL-28 melanoma
experimental_protocol: NCI tumour cell line growth inhibition, 48 h
property_name: TGI

A selection of reference data follows.
> print(dat)
                                   compound                 tgt    result
1   O=c1c(S(=O)(=O)Oc2ccccc2)coc2cc(F)ccc12  SK-MEL-28 melanoma  > 100 µM
2  Cc1ccc(CC(=O)Nc2ccc(NC(=O)CNC(=O)/C=C/c3ccc(-c4ccccc4)cc3)cc2C(=O)c2ccccc2)cc1  SK-MEL-28 melanoma   66.6 µM
3  O=C(c1ccccc1)n1[nH]c(=O)n(-c2ccc(Cl)cc2)c1=O  SK-MEL-28 melanoma  > 100 µM
4  COc1ccc2sc3c(NCCCNCCO)nc4ccccc4c3c(=O)c2c1  SK-MEL-28 melanoma   3.27 µM
5  CC(C)CC(=O)CC(O)C(Cl)(Cl)Cl (stereo not drawn)  SK-MEL-28 melanoma  > 100 µM

Inquiry: Find the recorded TGI belonging to CC(C)(C)OC(=O)NCCNC(=O)CN(CC(=O)O)C1CCCCC1N(CC(=O)O)CC(=O)O (stereo not drawn) and report it.
Reply text: > 100 µM

Inquiry: Give its TGI value. Item: C=C(C(=O)OC)[C@@H]1C[C@@H](O)[C@]2(C)CC/C=C(\C)CCC[C@H](C)[C@H](O)C1O2
Reply text: > 100 µM

Inquiry: Param item = COc1cc(C(CC(OC)OC)=C(C#N)C#N)cc(OC)c1OC ; retrieve measured TGI.
Reply text: > 100 µM

----------
Test system: UO-31 renal
experimental_protocol: NCI tumour cell line growth inhibition, 48 h
property_name: TGI

Consider the reported TGI for these molecules:
> print(dat)
                            molecule.smiles    result
1            O=C(/C=C/c1ccc(Cl)cc1)c1ccncc1  > 100 µM
2  O=[N+]([O-])c1cc(Cl)ccc1S(=O)(=O)c1cc(Cl)cc2c1NCCC2  > 100 µM
3      CCc1cc2c(oc3c4ccccc4ccc23)c(=O)[nH]1   > 10 µM

Would you kindly look at the next entry?
Inquiry: Data request, read-out TGI, for O=C1NC(=S)NC(=O)C1=Cc1ccc2ccccc2n1
Reply text: > 100 µM

----------
Test system: OVCAR-3 ovarian
experimental_protocol: NCI tumour cell line growth inhibition, 48 h
property_name: TGI

> print(dat)
                                   molecule  property.name    result
1  CC12CCC(O)CC1CCC1C2CCC2(C)C(C3=CC(=O)OC3)CCC12 (configuration not stated)            TGI  > 100 µM
2  Cc1ccccc1NC(=O)c1sc2nc3c(cc2c1N)C(=O)CCC3            TGI   4.45 µM
3  CCOC(=O)CN(Cc1ccccc1)Cc1c(C(=O)c2ccccc2)c2ccccc2n1C(=O)c1ccccc1            TGI  > 100 µM

Inquiry: Quick check: TGI of CCOC(=O)CCC(NC(=O)c1ccc(NCc2ccc3nc(-c4ccccc4)c(Cl)nc3c2)c2ccccc12)C(=O)OCC (configuration not stated) ?
Reply text: > 100 µM

Inquiry: Bench note: what TGI did CCc1cccc(C(C)CC)c1NC(=O)CC1C(=O)Nc2ccccc2S1=O (configuration not stated) show?
Reply text: > 100 µM

Inquiry: Query: TGI; subject: Cc1nn(C)c(=S)n(C)c1=O
Reply text: > 100 µM

----------
Reported TGI values follow for various molecules
Test system: SK-OV-3 ovarian
experimental_protocol: NCI tumour cell line growth inhibition, 48 h

Inquiry: Which TGI value is on record for O=C(CC(=O)Nc1ccccc1Cl)NNC(Sc1ccccc1)c1cc(N=Nc2ccc(Br)cc2)ccc1O (configuration not stated) ?
Reply text: > 10 µM

Inquiry: Item COc1cc(C(CC(OC)OC)=C(C#N)C#N)cc(OC)c1OC has what recorded TGI?
Reply text: > 100 µM

Inquiry: Any idea what its TGI is? The molecule is Nc1ccc(-c2nc3cc(F)ccc3s2)cc1
Reply text: > 100 µM

Inquiry: Could you share which TGI value was measured for O=C1/C(=C2\SCC(=O)N2c2ccccc2)SC(=S)N1c1ccccc1 ?
Reply text: 55.2 µM

Inquiry: I'd like to know its TGI. The molecule in question is OC(C(=Nc1ccccc1)c1ccccc1)c1ccccc1 (configuration not stated)
Reply text: 55.8 µM

----------
System: SK-OV-3 ovarian
experimental_protocol: NCI tumour cell line growth inhibition, 48 h
property_name: GI50

Solved cases (2 shown):
> print(dat)
                                   molecule  property.name    result
1  CC(C)[C@@H](CS(=O)(=O)C(C)C)N1C(=O)[C@@](C)(CC(=O)O)C[C@H](c2cccc(Cl)c2)[C@H]1c1ccc(Cl)cc1           GI50   19.2 µM
2  C=C1CO[C@@H]2C[C@@H]1CCC1(C)OC1CC/C(C)=C/CC[C@@]2(C)O (some centres undefined)           GI50  > 100 µM

Inquiry: Which GI50 is listed for NCC(=O)CCC(=O)O ?
Reply text: > 100 µM

Inquiry: # query: GI50 of entry Cc1ccc(-n2c(-c3ccc(Cl)cc3)cs/c2=N\NC(=O)COc2n[nH]c(=O)c3ccccc23)cc1
Reply text: 57.9 µM

----------
Recorded TGI by entry
System: SF-295 CNS
experimental_protocol: NCI tumour cell line growth inhibition, 48 h

> print(dat)
                                   compound  property.name    result
1  COC1(OC)c2ccccc2C2(O)c3ccccc3C(=O)C12 (stereo not drawn)            TGI  > 100 µM

Inquiry: For the compound Cc1nc(N)nc(N)c1N1CCN(Cc2ccccc2)CC1 , what TGI is on record?
Reply text: > 100 µM

Inquiry: Could you share which TGI value was measured for CC(=O)OC1=C2C(CC3C4CC=C5CC(OC(C)=O)CCC5(C)C4CCC23C)C2C(=O)N(Cc3ccccc3)C(=O)C2C1 (stereo not drawn) ?
Reply text: > 100 µM

----------
Test system: MDA-N
experimental_protocol: NCI tumour cell line growth inhibition, 48 h
property_name: TGI

Some solved cases for reference:
> print(dat)
                                   compound  property.name    result
1   C/C(=N\NC(=O)N/N=C(\C)c1ccccn1)c1ccccn1            TGI  > 100 µM
2  COC1=C(OC)C(=O)C(Cc2c(Cl)nc3n2CCS3)=C(C)C1=O            TGI   26.8 µM
3  CC(CC(C)(C)[N+](C)(C)C)[N+](C)(C)C (centres undefined)            TGI  > 100 µM
4  CSc1nc(=O)c(C#N)c(-c2ccccc2)n1C1OC(COC(C)=O)C(OC(C)=O)C(OC(C)=O)C1OC(C)=O (centres undefined)            TGI  > 100 µM

Inquiry: Find the measured TGI: item CCOC(=O)CCC(NC(=O)c1ccc(NCc2ccc3nc(-c4ccccc4)c(Cl)nc3c2)c2ccccc12)C(=O)OCC (centres undefined) , target or system MDA-N.
Reply text: > 100 µM

// provenance: PubChem BioAssay (NCI)
